tested on: full-length human PLD2 (Homo sapiens (Human))
assay notes: Evaluation of human PLD2 enzyme inhibitory activity (Amplex Red / choline oxidase fluorescence)
Format: biochemical
condition label: full-length human PLD2 enzyme; read-out: PLD2 IC50
pIC50: −log10 of the molar value.
Here, each record is paired with measured pIC50 data.
measured quantity: pIC50

> print(dat)
                                 cpd.smiles  modifier  experimental.result
1  CC(C)c1cc(F)ccc1C1=NNC(=O)O[C@]12CC[C@@H](C[C@H](C)NC(=O)c1cc(Cl)no1)CC2         =                 7.52
2  C[C@@H](C[C@H]1CC[C@]2(CC1)OC(=O)NN=C2c1cc(C#N)ccc1Br)NC(=O)c1ncon1         =                 6.49
3  Cc1cc(Br)ccc1C1=NNC(=O)O[C@]12CC[C@@H](C[C@H](C)NC(=O)NC1CC1)CC2         =                 5.96
4  Cc1cc(C(=O)N[C@@H](C)[C@H](C)N2CCC3(CC2)OC(=O)NN=C3c2ccc(F)cc2Br)[nH]n1         >                 8.00
5  CNC(=O)C(=O)N[C@H](CN1CCC2(CC1)OC(=O)NN=C2c1cc(C#N)ccc1Br)C(F)(F)F         =                 7.35
6  CNC(=O)C(=O)N[C@@H](C)C[C@H]1CC[C@]2(CC1)OC(=O)NN=C2c1ccc(Br)cc1         =                 7.29
7  CNC(=O)C(=O)N[C@@H](C)C[C@H]1CC[C@]2(CC1)OC(=O)NN=C2c1ccc(C#N)c(C)c1         =                 6.99

----------
tested on: full-length human PLD1 (Homo sapiens (Human))
Sequence (Q13393 other isoform, or with tags, fused parts or gaps): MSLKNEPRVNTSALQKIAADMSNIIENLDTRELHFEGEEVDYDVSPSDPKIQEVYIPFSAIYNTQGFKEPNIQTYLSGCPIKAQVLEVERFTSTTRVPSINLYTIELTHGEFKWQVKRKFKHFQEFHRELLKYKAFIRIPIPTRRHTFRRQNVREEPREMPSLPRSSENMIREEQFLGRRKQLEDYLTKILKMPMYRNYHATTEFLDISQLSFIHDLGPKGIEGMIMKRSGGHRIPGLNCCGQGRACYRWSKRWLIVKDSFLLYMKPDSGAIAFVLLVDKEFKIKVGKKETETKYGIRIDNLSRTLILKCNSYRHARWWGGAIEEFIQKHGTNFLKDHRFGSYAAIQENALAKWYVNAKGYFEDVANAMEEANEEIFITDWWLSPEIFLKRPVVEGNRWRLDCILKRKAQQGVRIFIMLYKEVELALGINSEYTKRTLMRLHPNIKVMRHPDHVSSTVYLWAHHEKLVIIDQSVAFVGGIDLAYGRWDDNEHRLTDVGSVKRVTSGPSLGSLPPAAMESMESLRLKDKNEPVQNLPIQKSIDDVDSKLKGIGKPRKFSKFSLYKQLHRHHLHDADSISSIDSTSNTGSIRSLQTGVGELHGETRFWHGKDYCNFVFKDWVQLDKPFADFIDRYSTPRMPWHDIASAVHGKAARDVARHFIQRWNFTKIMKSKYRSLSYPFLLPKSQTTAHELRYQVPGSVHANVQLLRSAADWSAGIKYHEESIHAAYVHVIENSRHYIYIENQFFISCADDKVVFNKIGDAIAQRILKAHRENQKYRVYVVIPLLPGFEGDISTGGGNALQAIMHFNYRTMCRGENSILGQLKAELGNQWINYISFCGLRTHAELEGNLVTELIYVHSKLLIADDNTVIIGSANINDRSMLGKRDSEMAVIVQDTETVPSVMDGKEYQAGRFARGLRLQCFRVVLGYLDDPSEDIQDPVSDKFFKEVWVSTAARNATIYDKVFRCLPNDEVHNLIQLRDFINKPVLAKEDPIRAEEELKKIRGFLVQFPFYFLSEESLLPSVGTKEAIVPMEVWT
assay notes: Evaluation of human PLD1 enzyme inhibitory activity (Amplex Red / choline oxidase fluorescence)
Assay type: biochemical
condition label: full-length human PLD1 enzyme; read-out: PLD1 IC50
measured quantity: IC50

> print(dat)
                                   compound                                 tested.on  measured.quantity  experimental.result
1  C[C@@H](C[C@H]1CC[C@]2(CC1)OC(=O)NN=C2c1ccc(S(C)(=O)=O)cc1Cl)NC(=O)c1cc2ccccc2o1 [Example 53]  full-length human PLD1 (Homo sapiens (Human))               IC50             0.019 µM
2  CC(=O)N[C@@H](C)C[C@H]1CC[C@]2(CC1)OC(=O)NN=C2c1ccc(F)cc1Br [Example 11]  full-length human PLD1 (Homo sapiens (Human))               IC50             0.228 µM
3  CNC(=O)C(=O)N[C@@H](C)C[C@H]1CC[C@]2(CC1)OC(=O)NN=C2c1ccccc1OC(F)(F)F [Example 105]  full-length human PLD1 (Homo sapiens (Human))               IC50             0.027 µM
4  Cc1cc(C(=O)N[C@@H](C)C[C@H]2CC[C@]3(CC2)OC(=O)NN=C3c2cccc3c2OCC3)[nH]n1 [Example 107]  full-length human PLD1 (Homo sapiens (Human))               IC50             0.085 µM

----------
Here, each record is paired with measured IC50 data.
tested on: full-length human PLD2 (Homo sapiens (Human), UniProt O14939)
Sequence (O14939 whole entry): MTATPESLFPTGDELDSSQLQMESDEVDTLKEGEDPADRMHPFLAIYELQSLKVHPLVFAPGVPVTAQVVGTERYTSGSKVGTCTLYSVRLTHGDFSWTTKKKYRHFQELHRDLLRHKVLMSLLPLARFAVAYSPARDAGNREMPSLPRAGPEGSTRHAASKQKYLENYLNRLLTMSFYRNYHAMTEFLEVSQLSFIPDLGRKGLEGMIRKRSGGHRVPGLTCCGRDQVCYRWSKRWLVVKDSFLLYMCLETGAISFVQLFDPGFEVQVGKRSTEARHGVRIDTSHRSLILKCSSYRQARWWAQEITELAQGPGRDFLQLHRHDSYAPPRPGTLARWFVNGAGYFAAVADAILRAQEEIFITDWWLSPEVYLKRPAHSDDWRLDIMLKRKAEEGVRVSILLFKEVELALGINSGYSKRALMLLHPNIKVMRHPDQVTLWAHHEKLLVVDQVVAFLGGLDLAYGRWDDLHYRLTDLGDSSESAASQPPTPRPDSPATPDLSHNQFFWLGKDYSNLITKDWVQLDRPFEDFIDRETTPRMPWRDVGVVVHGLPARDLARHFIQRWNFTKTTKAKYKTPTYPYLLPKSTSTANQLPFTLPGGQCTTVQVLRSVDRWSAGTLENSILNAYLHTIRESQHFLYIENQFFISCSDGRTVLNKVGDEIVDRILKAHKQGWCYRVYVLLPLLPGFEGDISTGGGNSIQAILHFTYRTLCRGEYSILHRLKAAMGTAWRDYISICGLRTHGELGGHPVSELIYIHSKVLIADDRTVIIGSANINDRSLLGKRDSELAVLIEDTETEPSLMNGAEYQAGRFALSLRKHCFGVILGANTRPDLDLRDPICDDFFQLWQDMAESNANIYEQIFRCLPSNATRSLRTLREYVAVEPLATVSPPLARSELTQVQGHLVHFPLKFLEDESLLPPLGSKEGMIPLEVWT
assay notes: Evaluation of human PLD2 enzyme inhibitory activity (Amplex Red / choline oxidase fluorescence)
Type: biochemical
condition label: full-length human PLD2 enzyme; read-out: PLD2 IC50
measured quantity: IC50 (nM)

> print(dat)
                                   compound  measured.quantity  modifier  experimental.result
1  Cc1cc(F)ccc1C1=NNC(=O)O[C@]12CC[C@@H](C[C@H](C)NC(=O)N1CC[C@@H](c3ccccc3)C1)CC2 [Example 138]               IC50         =                 1400
2  Cc1cc(C(=O)N[C@@H](C)C[C@H]2CC[C@]3(CC2)OC(=O)NN=C3c2cc(OCC(F)(F)F)ccc2Br)[nH]n1 [Example 298]               IC50         <                   10
3  C[C@@H](C[C@H]1CC[C@]2(CC1)OC(=O)NN=C2c1ccc(F)cc1Br)NC(=O)c1cc2ccccc2o1 [Example 19]               IC50         =                   10
4  C[C@@H](C[C@H]1CC[C@]2(CC1)OC(=O)NN=C2c1cc(Cl)ccc1Cl)NC(=O)c1cc2ccccn2c1 [Example 323]               IC50         <                   10
5  C[C@@H](CN1CCC2(CC1)OC(=O)NN=C2c1cc(C#N)ccc1Br)NC(=O)c1cn(C)cn1 [Example 2-054]               IC50         <                   10
6  CNC(=O)C(=O)N[C@@H](C)CN1CCC2(CC1)OC(=O)NN=C2c1ccc(C#N)cc1C(F)(F)F [Example 327]               IC50         =                   51
7  CNC(=O)C(=O)N[C@@H](C)C[C@H]1CC[C@]2(CC1)OC(=O)NN=C2c1ccc(OCC(C)(C)O)cc1Br [Example 130]               IC50         <                   10

----------
Here, each record is paired with measured log10(IC50) data.
tested on: UniProt:Q13393
assay notes: Evaluation of human PLD1 enzyme inhibitory activity (Amplex Red / choline oxidase fluorescence)
Type: biochemical
condition label: full-length human PLD1 enzyme; read-out: PLD1 IC50
measured quantity: log10(IC50) (log10 of the value in nM)

> print(dat)
                                 cpd.smiles  experimental.result
1  Cc1cc(C(=O)N[C@@H](C)C[C@H]2CC[C@]3(CC2)OC(=O)NN=C3c2cnc(N3C[C@@H]4C[C@H]3CO4)cc2Cl)[nH]n1                 1.11
2  C[C@@H](CN1CCC2(CC1)OC(=O)N(C(=O)NC1CC1)N=C2c1ccc(F)cc1Br)NC(=O)NC1CC1                 2.81
3  C[C@@H](C[C@H]1CC[C@]2(CC1)OC(=O)NN=C2c1ccc(F)cc1Cl)NC(=O)c1cc2cc(F)ccc2o1                 1.15
4  C[C@@H](CN1CCC2(CC1)OC(=O)NN=C2c1cc(C#N)ccc1Br)NC(=O)c1ccccc1C(F)(F)F                 3.18
5  CNC(=O)C(=O)N[C@@H](C)C[C@H]1CC[C@]2(CC1)OC(=O)NN=C2c1cnc(N2C[C@H]3C[C@@H]2CO3)cc1Cl                 1.38
6  CNC(=O)C(=O)N[C@@H](C)C[C@H]1CC[C@]2(CC1)OC(=O)NN=C2c1cnc(N2CCC(F)(F)C2)cc1Cl                 1.23
7  CNC(=O)C(=O)N[C@@H](C)CN1CC[C@]2(C[C@@H]1C)OC(=O)NN=C2c1ccc(C#N)cc1Cl                 2.17

----------
tested on: full-length human PLD2 (Homo sapiens (Human), UniProt O14939)
assay notes: Evaluation of human PLD2 enzyme inhibitory activity (Amplex Red / choline oxidase fluorescence)
Format: biochemical
condition label: full-length human PLD2 enzyme; read-out: PLD2 IC50
measured quantity: IC50

> print(dat)
                                 cpd.smiles  experimental.result
1  C[C@@H](C[C@H]1CC[C@]2(CC1)OC(=O)NN=C2c1ccc(F)cc1Br)NC(=O)N1CCOC2(CC2)C1             0.048 µM
2  CNC(=O)C(=O)N[C@@H](C)C[C@H]1CC[C@]2(CC1)OC(=O)NN=C2c1cccc(C#N)c1Br             0.024 µM
3  Cc1cc(C(=O)N[C@@H](C)C[C@H]2CC[C@]3(CC2)OC(=O)NN=C3c2cnc(N3CCC(F)(F)C3)cc2C)[nH]n1            < 0.01 µM
4  C[C@@H](CN1CCC2(CC1)OC(=O)NN=C2c1ccc(F)cc1)NC(=O)c1cc2cc(F)ccc2[nH]1            < 0.01 µM
5  Cc1cc(C(=O)N[C@@H](C)CN2CCC3(CC2)OC(=O)NN=C3c2cc(Br)c(F)cc2Cl)[nH]n1            < 0.01 µM
6  CNC(=O)C(=O)N[C@@H](C)C[C@H]1CC[C@]2(CC1)OC(=O)NN=C2c1ccc(F)cc1C1CC1            < 0.01 µM
7  CNC(=O)C(=O)N[C@@H](C)C[C@H]1CC[C@]2(CC1)OC(=O)NN=C2c1cc(C(=O)N(C)C)ccc1Br            < 0.01 µM

Value source: patent US20240101572A1
